Please provide measured clearance for the entries that follow.
Test: Clearance in cynomolgus monkey at 1 mg/kg, iv solution at pH 4.5
Assay type: ADME, organism-based, Macaca fascicularis
Conditions: in vivo
Write the answer as a number in mL/min/kg, unit excluded.

According to the records, this molecule `N#Cc1cc2c(cn1)[nH]c1ncc(-c3ccc(CN4CCC5(CC4)COC5)cc3)cc12` displays clearance of 30.8

According to the records, this molecule `N#Cc1cc2c(cn1)[nH]c1ncc(-c3ccc(CN4CCCCC4)cc3)cc12` displays clearance of 45.8

---

Molecular target: Serine/threonine-protein kinase Chk1 (Homo sapiens)
Assay: Inhibition of human recombinant Chk1 using biotinylated AKT substrate after 30 mins by Alphascreen biochemical assay
Observation Type: pIC50
Keep in mind that pIC50 stands for -log10 of concentration in molar terms.

According to the records, this molecule `N#Cc1cc2c(cn1)[nH]c1ncc(-c3ccc(CN4CCC5(CC4)COC5)cc3)cc12` displays pIC50 of 8.60

According to the records, this molecule `N#Cc1cc2c(cn1)[nH]c1ncc(-c3ccncc3)cc12` displays pIC50 of 7.37

According to the records, this molecule `CN1CCN(c2cccc(-c3cnc4[nH]c5cnc(C#N)cc5c4c3)c2)CC1` displays pIC50 of 8.72

According to the records, this molecule `c1ncc(-c2cc3c(cn2)[nH]c2ncc(-c4ccc(CN5CCCCC5)cc4)cc23)cn1` displays pIC50 of 8.29

According to the records, this molecule `COc1cc2c(cn1)[nH]c1ncc(-c3ccc(CN4CCCCC4)cc3)cc12` displays pIC50 of 7.70

According to the records, this molecule `N#Cc1cc2c(cn1)[nH]c1ncc(-c3ccc(CO)cc3)cc12` displays pIC50 of 7.94

According to the records, this molecule `CC1(C)CCN(Cc2ccc(-c3cnc4[nH]c5cnc(C#N)cc5c4c3)cc2)CC1` displays pIC50 of 8.36

According to the records, this molecule `N#Cc1cc2c(cn1)[nH]c1ncc(-c3ccc(CN4CCC(F)CC4)cc3)cc12` displays pIC50 of 8.30

According to the records, this molecule `N#Cc1cc2c(cn1)[nH]c1ncc(-c3ccc(N4CCOCC4)cc3)cc12` displays pIC50 of 7.10

According to the records, this molecule `c1cc(-c2cnc3[nH]c4cnc(-c5cnoc5)cc4c3c2)ccc1CN1CCCCC1` displays pIC50 of 8.96

---

Target: Acetylcholinesterase (Homo sapiens)
Sequence (P22303 whole entry): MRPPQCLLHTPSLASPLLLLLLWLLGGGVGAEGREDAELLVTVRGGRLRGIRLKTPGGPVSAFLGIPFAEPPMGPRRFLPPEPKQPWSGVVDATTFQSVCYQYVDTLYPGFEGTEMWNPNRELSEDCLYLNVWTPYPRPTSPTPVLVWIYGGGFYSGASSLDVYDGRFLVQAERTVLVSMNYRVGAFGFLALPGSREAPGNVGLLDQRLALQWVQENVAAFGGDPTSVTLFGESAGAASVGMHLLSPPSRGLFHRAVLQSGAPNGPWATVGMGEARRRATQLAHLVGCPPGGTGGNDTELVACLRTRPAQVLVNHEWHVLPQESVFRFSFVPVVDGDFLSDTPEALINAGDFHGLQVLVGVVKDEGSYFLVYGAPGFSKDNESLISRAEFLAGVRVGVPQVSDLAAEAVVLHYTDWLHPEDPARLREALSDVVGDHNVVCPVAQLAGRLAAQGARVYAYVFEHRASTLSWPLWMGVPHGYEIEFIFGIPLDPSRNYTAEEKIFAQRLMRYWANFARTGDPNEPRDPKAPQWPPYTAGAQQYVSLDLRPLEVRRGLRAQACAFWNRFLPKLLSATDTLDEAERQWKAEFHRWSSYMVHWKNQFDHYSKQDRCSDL
Assay: Inhibition of human acetylcholine esterase by horseradish peroxidase-coupled fluorescence assay
Threshold 0.3 µM. IC50 below it: rule met. IC50 at it or above: rule not met.

**Query** Lab log: compare recorded IC50 with 0.3 µM; is it strictly lower for `N#Cc1cc2c(cn1)[nH]c1ncc(-c3ccc(CN4CCC5(CC4)COC5)cc3)cc12` ?
**Result** rule not met

**Query** Lab log: compare recorded IC50 with 0.3 µM; is it strictly lower for `C[C@@H]1C[C@H](C)CN(Cc2ccc(-c3cnc4[nH]c5cnc(C#N)cc5c4c3)cc2)C1` ?
**Result** rule not met

**Query** Lab log: compare recorded IC50 with 0.3 µM; is it strictly lower for `c1ncc(-c2cc3c(cn2)[nH]c2ncc(-c4ccc(CN5CCCCC5)cc4)cc23)o1` ?
**Result** rule not met

**Query** Lab log: compare recorded IC50 with 0.3 µM; is it strictly lower for `N#Cc1cc2c(cn1)[nH]c1ncc(-c3ccc(CN4CCCCC4)nc3)cc12` ?
**Result** rule met

**Query** Lab log: compare recorded IC50 with 0.3 µM; is it strictly lower for `N#Cc1cc2c(cn1)[nH]c1ncc(-c3ccc(CN4CCOCC4)cc3)cc12` ?
**Result** rule not met

**Query** Lab log: compare recorded IC50 with 0.3 µM; is it strictly lower for `Cn1cc(-c2cc3c(cn2)[nH]c2ncc(-c4ccc(CN5CCCCC5)cc4)cc23)cn1` ?
**Result** rule not met

**Query** Lab log: compare recorded IC50 with 0.3 µM; is it strictly lower for `CC1(C)CCN(Cc2ccc(-c3cnc4[nH]c5cnc(C#N)cc5c4c3)cc2)CC1` ?
**Result** rule met

**Query** Lab log: compare recorded IC50 with 0.3 µM; is it strictly lower for `c1ncc(-c2cc3c(cn2)[nH]c2ncc(-c4ccc(CN5CCCCC5)cc4)cc23)cn1` ?
**Result** rule met

**Query** Lab log: compare recorded IC50 with 0.3 µM; is it strictly lower for `CC(C)(c1ccc(-c2cnc3[nH]c4cnc(C#N)cc4c3c2)cc1)N1CCCCC1` ?
**Result** rule not met

**Query** Lab log: compare recorded IC50 with 0.3 µM; is it strictly lower for `c1nnc(-c2cc3c(cn2)[nH]c2ncc(-c4ccc(CN5CCCCC5)cc4)cc23)o1` ?
**Result** rule not met

---

Assay: Oral bioavailability in CD1 mouse at 5 mg/kg suspension at pH 6.5
Assay type: ADME, organism-based
Details: CD1, mouse, in vivo, 5 mg/kg, pH 6.5
Observation Type: bioavailability (%)
Write the answer as a number in %, unit excluded.

According to the records, this compound `N#Cc1cc2c(cn1)[nH]c1ncc(-c3ccc(CN4CCCCC4)cc3)cc12` displays bioavailability of 86.5

---

Test: Cmax in CD1 mouse at 5 mg/kg, po suspension at pH 6.5
Format: ADME, organism-based
Parameters: dose 5 mg/kg, route oral
Conditions: in vivo
Observation Type: Cmax
Include the unit after the number when you answer.

According to the records, this compound `N#Cc1cc2c(cn1)[nH]c1ncc(-c3ccc(CN4CCCCC4)cc3)cc12` displays Cmax of 386 nM

According to the records, this compound `N#Cc1cc2c(cn1)[nH]c1ncc(-c3ccc(CN4CCC5(CC4)COC5)cc3)cc12` displays Cmax of 191 nM

---

Molecular target: Acetylcholinesterase (Homo sapiens)
pIC50: −log10 of the molar value.
Group membership follows pIC50 per the scheme lower range (below 6), middle range (6 to below 7), upper range (7 or more)

**Query** Which category does the recorded pIC50 put `CN1CCN(c2ccc(-c3cnc4[nH]c5cnc(C#N)cc5c4c3)cc2)CC1` in?
**Result** upper range

**Query** Which category does the recorded pIC50 put `N#Cc1cc2c(cn1)[nH]c1ncc(-c3nc(CN4CCCCC4)cs3)cc12` in?
**Result** upper range

**Query** Which category does the recorded pIC50 put `N#Cc1cc2c(cn1)[nH]c1ncc(-c3ccc(CN4CCC(O)CC4)cc3)cc12` in?
**Result** middle range

**Query** Which category does the recorded pIC50 put `CN1CCN(c2cccc(-c3cnc4[nH]c5cnc(C#N)cc5c4c3)c2)CC1` in?
**Result** lower range

**Query** Which category does the recorded pIC50 put `CCN1CCc2sc(-c3cnc4[nH]c5cnc(C#N)cc5c4c3)cc2C1` in?
**Result** middle range

**Query** Which category does the recorded pIC50 put `CC1(C)CCCN(Cc2ccc(-c3cnc4[nH]c5cnc(C#N)cc5c4c3)cc2)C1` in?
**Result** lower range

**Query** Which category does the recorded pIC50 put `c1cncc(-c2cc3c(cn2)[nH]c2ncc(-c4ccc(CN5CCCCC5)cc4)cc23)c1` in?
**Result** middle range

---

Please provide measured IC50 for the entries that follow.
Target: Serine/threonine-protein kinase Chk1 (Homo sapiens, UniProt O14757)
Sequence (O14757 whole entry): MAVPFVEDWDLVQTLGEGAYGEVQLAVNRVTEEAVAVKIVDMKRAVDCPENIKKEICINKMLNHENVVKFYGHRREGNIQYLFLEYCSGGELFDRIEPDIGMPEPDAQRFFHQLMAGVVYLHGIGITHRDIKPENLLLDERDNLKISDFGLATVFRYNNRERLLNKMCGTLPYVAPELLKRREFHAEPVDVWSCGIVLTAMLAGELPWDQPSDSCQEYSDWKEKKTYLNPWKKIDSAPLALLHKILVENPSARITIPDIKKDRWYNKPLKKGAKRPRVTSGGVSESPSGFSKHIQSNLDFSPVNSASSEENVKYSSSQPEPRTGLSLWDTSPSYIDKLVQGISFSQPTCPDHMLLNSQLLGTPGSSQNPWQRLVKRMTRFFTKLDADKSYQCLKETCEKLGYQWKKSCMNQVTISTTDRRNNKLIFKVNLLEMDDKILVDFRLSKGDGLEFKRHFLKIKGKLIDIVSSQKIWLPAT
Test: Inhibition of human recombinant Chk1 using biotinylated AKT substrate after 30 mins by Alphascreen biochemical assay
Write the answer as a number in nM, unit excluded.

According to the records, this compound `C[C@@H]1C[C@H](C)CN(Cc2ccc(-c3cnc4[nH]c5cnc(C#N)cc5c4c3)cc2)C1` displays IC50 of 4.2

According to the records, this compound `c1cc(-c2cc3c(cn2)[nH]c2ncc(-c4ccc(CN5CCCCC5)cc4)cc23)ccn1` displays IC50 of 9.1

According to the records, this compound `CC(=O)Nc1cccc(-c2cnc3[nH]c4cnc(C#N)cc4c3c2)c1` displays IC50 of 13.5

According to the records, this compound `CCN1CCc2sc(-c3cnc4[nH]c5cnc(C#N)cc5c4c3)cc2C1` displays IC50 of 0.78

According to the records, this compound `c1nnc(-c2cc3c(cn2)[nH]c2ncc(-c4ccc(CN5CCCCC5)cc4)cc23)o1` displays IC50 of 0.95

According to the records, this compound `N#Cc1cc2c(cn1)[nH]c1ncc(-c3ccoc3)cc12` displays IC50 of 16.6

According to the records, this compound `N#Cc1cc2c(cn1)[nH]c1ncc(-c3nc(CN4CCCCC4)cs3)cc12` displays IC50 of 13.6

According to the records, this compound `N#Cc1cc2c(cn1)[nH]c1ncc(-c3cccs3)cc12` displays IC50 of 20.2

According to the records, this compound `c1cc2c(cn1)[nH]c1ncc(-c3ccc(CN4CCCCC4)cc3)cc12` displays IC50 of 18.6

According to the records, this compound `Oc1cc2c(cn1)[nH]c1ncc(-c3ccc(CN4CCCCC4)cc3)cc12` displays IC50 of 863

According to the records, this compound `CC1(C)CCCN(Cc2ccc(-c3cnc4[nH]c5cnc(C#N)cc5c4c3)cc2)C1` displays IC50 of 9.4

According to the records, this compound `CCN1CCc2cc(-c3cnc4[nH]c5cnc(C#N)cc5c4c3)ccc2C1` displays IC50 of 2.3

According to the records, this compound `N#Cc1cc2c(cn1)[nH]c1ncc(-c3ccccc3O)cc12` displays IC50 of 41.7

According to the records, this compound `C[C@@H]1CCC[C@H](C)N1Cc1ccc(-c2cnc3[nH]c4cnc(C#N)cc4c3c2)cc1` displays IC50 of 2.1

According to the records, this compound `CCNC(=O)c1cc2c(cn1)[nH]c1ncc(-c3ccc(CN4CCCCC4)cc3)cc12` displays IC50 of 102

According to the records, this compound `N#Cc1cc2c(cn1)[nH]c1ncc(-c3ccc(CN4CCCCC4)nc3)cc12` displays IC50 of 5.3

According to the records, this compound `CCNc1cnc2[nH]c3cnc(C#N)cc3c2c1` displays IC50 of 56.6

According to the records, this compound `c1cncc(-c2cc3c(cn2)[nH]c2ncc(-c4ccc(CN5CCCCC5)cc4)cc23)c1` displays IC50 of 0.95

According to the records, this compound `N#Cc1cc2c(cn1)[nH]c1ncc(Br)cc12` displays IC50 of 140

According to the records, this compound `N#Cc1cc2c(cn1)[nH]c1ncc(O)cc12` displays IC50 of 38.1

According to the records, this compound `NC(=O)c1cc2c(cn1)[nH]c1ncc(-c3ccc(CN4CCCCC4)cc3)cc12` displays IC50 of 4.3

According to the records, this compound `Cn1cc(-c2cc3c(cn2)[nH]c2ncc(-c4ccc(CN5CCCCC5)cc4)cc23)cn1` displays IC50 of 0.31

According to the records, this compound `N#Cc1cc2c(cn1)[nH]c1ncc(-c3ncc[nH]3)cc12` displays IC50 of 14.7

According to the records, this compound `N#Cc1cc2c(cn1)[nH]c1ncc(-c3ccc(CN4CCC(O)CC4)cc3)cc12` displays IC50 of 1.8

Source of measurements: ChEMBL document CHEMBL3580561
